experiment: self-splicing fitness, log relative to wild type (ln ratio); higher = more splicing; Tetrahymena group I intron in knt gene, E. coli kanamycin selection, DiMSum; sequences stand for … in CUCUCU…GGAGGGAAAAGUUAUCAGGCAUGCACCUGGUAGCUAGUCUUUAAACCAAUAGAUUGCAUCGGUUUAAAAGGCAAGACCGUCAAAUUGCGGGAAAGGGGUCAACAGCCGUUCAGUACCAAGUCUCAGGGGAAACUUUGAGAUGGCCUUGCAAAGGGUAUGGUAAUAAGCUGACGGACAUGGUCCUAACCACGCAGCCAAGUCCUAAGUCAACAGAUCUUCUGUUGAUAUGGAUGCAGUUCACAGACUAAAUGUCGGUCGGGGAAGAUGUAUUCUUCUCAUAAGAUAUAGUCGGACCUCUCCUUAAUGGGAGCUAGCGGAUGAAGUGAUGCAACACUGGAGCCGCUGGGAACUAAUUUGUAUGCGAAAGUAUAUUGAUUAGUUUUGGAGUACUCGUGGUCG; details: 37 °C;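 note: selection with 25 µg/mL kanamycin versus none on LB agar overnight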
Kind request: treat -2 as inclusive, so self-splicing fitness (ln) at -2 or higher is 1.0, anything lower is 0.0.

Incoming: Is self-splicing fitness (ln) for GGAGAGCAAUAUUACGGGAA at or above -2?
Outgoing: 0.0

Incoming: Please indicate if the recorded self-splicing fitness (ln) for CGAUAGCAAUAUUACGAGAU meets or exceeds -2.
Outgoing: 0.0

Incoming: Reported self-splicing fitness (ln) reaches at least -2 for CGCAAGCAAUAUUACGUUGC ?
Outgoing: 0.0

Incoming: I'd appreciate it if you could say whether UUUGAGCAAUAUUACGCGCA has self-splicing fitness (ln) at least equal to -2.
Outgoing: 1.0

Incoming: Identify whether the reported self-splicing fitness (ln) of the following sequence is -2 or greater: AGAAAGCAAUAUUACGAUCU
Outgoing: 1.0

Incoming: Please indicate if the recorded self-splicing fitness (ln) for ACAAAGCAAUAUUACGUUUC meets or exceeds -2.
Outgoing: 0.0

Incoming: Would you say AGUUAGCAAUAUUACGGCCA shows self-splicing fitness (ln) at minimum -2?
Outgoing: 1.0

Incoming: Would you say ACCCAGCAAUAUUACGAGAA shows self-splicing fitness (ln) at minimum -2?
Outgoing: 1.0

Incoming: Quick check, self-splicing fitness (ln) >= -2? UUUUAGCAAUAUUACGAAUC
Outgoing: 1.0

Incoming: Does the sequence UCGUAGCAAUAUUACGGAGC have recorded self-splicing fitness (ln) that is -2 or more?
Outgoing: 0.0

Incoming: Say whether ACCCAGCAAUAUUACGCUCG shows self-splicing fitness (ln) of -2 or more.
Outgoing: 0.0

Incoming: Dear colleague, could you confirm whether GACGAGCAAUAUUACGCACG has self-splicing fitness (ln) at or above -2?
Outgoing: 0.0

Incoming: Does the sequence CGUCAGCAAUAUUACGCCGU have recorded self-splicing fitness (ln) that is -2 or more?
Outgoing: 1.0

Incoming: Please indicate if the recorded self-splicing fitness (ln) for UAUGAGCAAUAUUACGGAUA meets or exceeds -2.
Outgoing: 1.0

Incoming: Please tell me: is the sequence AGGCAGCAAUAUUACGUGAA at or over -2 in terms of self-splicing fitness (ln)?
Outgoing: 1.0

Incoming: Decide: self-splicing fitness (ln) of AAGAAGCAAUAUUACGUGUA >= -2?
Outgoing: 1.0

====

test: self-splicing fitness, log relative to wild type (ln ratio); higher = more splicing; Tetrahymena group I intron in knt gene, E. coli kanamycin selection, DiMSum; sequences stand for … in CUCUCU…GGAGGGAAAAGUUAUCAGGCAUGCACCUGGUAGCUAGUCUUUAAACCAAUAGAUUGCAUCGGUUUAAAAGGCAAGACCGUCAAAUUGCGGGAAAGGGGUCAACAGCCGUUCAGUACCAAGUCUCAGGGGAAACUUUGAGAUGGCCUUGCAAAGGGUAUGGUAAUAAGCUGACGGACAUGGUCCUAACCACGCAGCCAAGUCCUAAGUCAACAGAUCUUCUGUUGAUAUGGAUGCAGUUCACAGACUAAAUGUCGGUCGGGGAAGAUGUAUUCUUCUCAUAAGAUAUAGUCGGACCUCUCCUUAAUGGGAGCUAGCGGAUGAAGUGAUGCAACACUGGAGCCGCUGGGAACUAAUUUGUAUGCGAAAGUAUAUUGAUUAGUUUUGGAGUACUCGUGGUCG; conditions: 37 °C
Consider the following sequences; for each one, report its self-splicing fitness (ln).
Answer using only a numeral; do not append any unit.

Incoming: Returns the measured self-splicing fitness (ln) for the input sequence. Input: GCGGAGCAAUAUUACGUCCU
Outgoing: -0.651

Incoming: Which self-splicing fitness (ln) value belongs to CCCGAGCAAUAUUACGAUCG ?
Outgoing: -2.71

Incoming: State the recorded self-splicing fitness (ln) for this entry: GGCCAGCAAUAUUACGAAUA
Outgoing: -2.71

Incoming: Need self-splicing fitness (ln) of GAGAAGCAAUAUUACGCGAU , thanks.
Outgoing: -2.48

Incoming: Consider the sequence UGACAGCAAUAUUACGCCCC and give its measured self-splicing fitness (ln).
Outgoing: -0.391

Incoming: Which self-splicing fitness (ln) reading was recorded for the sequence UUGCAGCAAUAUUACGGACC ?
Outgoing: -2

Incoming: May I ask what self-splicing fitness (ln) has been recorded for GUAAAGCAAUAUUACGUGGC ?
Outgoing: -2.48

Incoming: What value of measured self-splicing fitness (ln) is listed for ACUUAGCAAUAUUACGACUC ?
Outgoing: -0.137

Incoming: Given AUGUAGCAAUAUUACGCCCC , state its recorded self-splicing fitness (ln).
Outgoing: -0.186

Incoming: For the sequence ACCAAGCAAUAUUACGGAAG , what self-splicing fitness (ln) is on record?
Outgoing: -3.14

Incoming: What value of self-splicing fitness (ln) has been recorded for this entry: UUGCAGCAAUAUUACGCUUU
Outgoing: -2.11

Incoming: For the sequence UGAUAGCAAUAUUACGAAUU , what self-splicing fitness (ln) is on record?
Outgoing: -2.64

Incoming: Endpoint output: self-splicing fitness (ln) of GUACAGCAAUAUUACGGUUG . Value?
Outgoing: -1.86

Incoming: Find the recorded self-splicing fitness (ln) belonging to AGGGAGCAAUAUUACGCAAU and report it.
Outgoing: -1.7

Incoming: Please give the measured self-splicing fitness (ln) for this sequence: CUGGAGCAAUAUUACGGGAG
Outgoing: -0.913

Incoming: Fill in: self-splicing fitness (ln) of AUGCAGCAAUAUUACGGUUG is ___
Outgoing: -2.21

Incoming: Field request: self-splicing fitness (ln) | item: UUAAAGCAAUAUUACGUGUG
Outgoing: -0.4

Incoming: Need self-splicing fitness (ln) of GCUGAGCAAUAUUACGGAAC , thanks.
Outgoing: -0.857

Incoming: Name the reported self-splicing fitness (ln) value associated with the sequence AAUCAGCAAUAUUACGGACG
Outgoing: 0.478

Incoming: For the sequence shown here, GCAAAGCAAUAUUACGUGUC , give the reported self-splicing fitness (ln).
Outgoing: -1.84

Incoming: # self-splicing fitness (ln) lookup, item AGGUAGCAAUAUUACGGACU
Outgoing: 0.271

Incoming: What does the data say about its self-splicing fitness (ln)? Entry: CCGCAGCAAUAUUACGCCGG
Outgoing: -3

Incoming: Report self-splicing fitness (ln) for UCCUAGCAAUAUUACGAGGU please.
Outgoing: -1.45

Incoming: Report self-splicing fitness (ln) for UUAUAGCAAUAUUACGUAUC please.
Outgoing: -3.04

Incoming: Bench note: what self-splicing fitness (ln) did CCAAAGCAAUAUUACGGUCG show?
Outgoing: -0.674

Incoming: Need self-splicing fitness (ln), item GCUCAGCAAUAUUACGUGCC
Outgoing: -2.56

Incoming: Bench note: what self-splicing fitness (ln) did UCGCAGCAAUAUUACGCGUG show?
Outgoing: -1.44

Incoming: I am curious: what self-splicing fitness (ln) value has been reported for GUUAAGCAAUAUUACGGGGC ?
Outgoing: -2.58

Incoming: I have this sequence here, UUCAAGCAAUAUUACGAGAA , and I need its recorded self-splicing fitness (ln).
Outgoing: -1.61

Incoming: Record request: self-splicing fitness (ln) value, item AGUAAGCAAUAUUACGAUUC
Outgoing: -0.96

Incoming: Bench note: what self-splicing fitness (ln) did AGGAAGCAAUAUUACGCCUC show?
Outgoing: -0.418

Incoming: GET /values?readout=self-splicing fitness (ln)&item= CCAGAGCAAUAUUACGUCUG
Outgoing: -1.63

Incoming: Can you share its self-splicing fitness (ln)? I mean this sequence: UAGCAGCAAUAUUACGUGAA
Outgoing: -0.671

Incoming: Can you look up the measured self-splicing fitness (ln) of ACUAAGCAAUAUUACGAGGA for me?
Outgoing: -2.13

====

assay: self-splicing fitness, log relative to wild type (ln ratio); higher = more splicing; Tetrahymena group I intron in knt gene, E. coli kanamycin selection, DiMSum; sequences stand for … in CUCUCU…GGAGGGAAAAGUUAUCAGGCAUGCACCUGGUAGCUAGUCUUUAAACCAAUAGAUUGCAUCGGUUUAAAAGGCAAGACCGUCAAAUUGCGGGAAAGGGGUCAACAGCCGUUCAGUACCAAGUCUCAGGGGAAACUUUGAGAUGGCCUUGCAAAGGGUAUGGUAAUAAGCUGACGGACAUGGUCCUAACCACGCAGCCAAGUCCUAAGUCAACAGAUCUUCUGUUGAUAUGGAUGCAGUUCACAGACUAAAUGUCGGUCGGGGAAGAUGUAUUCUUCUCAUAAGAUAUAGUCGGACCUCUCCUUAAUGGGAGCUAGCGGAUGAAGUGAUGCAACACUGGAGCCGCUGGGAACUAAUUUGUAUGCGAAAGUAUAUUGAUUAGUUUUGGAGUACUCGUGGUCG; conditions: 30 °C
quantity.kind: self-splicing fitness (ln)
Please give only the number in your answer, with no unit.

Incoming: Param item = GUAUAGCAAUAUUACGGUAG ; retrieve measured self-splicing fitness (ln).
Outgoing: -1.43

Incoming: Using the record for GUCGAGCAAUAUUACGUCGU , report its self-splicing fitness (ln).
Outgoing: -0.515

Incoming: Given the entry UUCAAGCAAUAUUACGGUUU , report its measured self-splicing fitness (ln).
Outgoing: -3.08

Incoming: // returns reported self-splicing fitness (ln) for input UCCAAGCAAUAUUACGUGUU
Outgoing: -3.46

Incoming: Could you tell me which self-splicing fitness (ln) is on file for AAUUAGCAAUAUUACGCCGA ?
Outgoing: -1.34

Incoming: For AUGAAGCAAUAUUACGAACU , what is its reported self-splicing fitness (ln)?
Outgoing: -0.587

Incoming: Need self-splicing fitness (ln) of ACGCAGCAAUAUUACGGGUA , thanks.
Outgoing: -2.46

Incoming: Value lookup for self-splicing fitness (ln); key = GCUUAGCAAUAUUACGUUCA
Outgoing: -1.01

Incoming: Look up self-splicing fitness (ln): CUAGAGCAAUAUUACGCCUG
Outgoing: -0.0979

Incoming: Value lookup for self-splicing fitness (ln); key = GGGGAGCAAUAUUACGAAAC
Outgoing: -3.15

Incoming: Given GCGGAGCAAUAUUACGUCCU , state its recorded self-splicing fitness (ln).
Outgoing: -1.31

Incoming: Requested read-out: self-splicing fitness (ln). Entry: CGGGAGCAAUAUUACGAGCC
Outgoing: -0.749

Incoming: Tell me the measured self-splicing fitness (ln) of CUUAAGCAAUAUUACGCCCU , please.
Outgoing: -3.17

Incoming: Sample GCUGAGCAAUAUUACGAGAU — what was its self-splicing fitness (ln)?
Outgoing: -3.06

Incoming: Query (sequence): CGAUAGCAAUAUUACGUAUA ; field requested: self-splicing fitness (ln)
Outgoing: -2.37

Incoming: If you can, please state the reported self-splicing fitness (ln) value of GCACAGCAAUAUUACGUCCA .
Outgoing: -0.954
